# Test Protocol: MRT in Beagle dog at […], iv measured after 24 hrs by LC-MS/MS analysis
# Format: ADME, organism-based, Canis lupus familiaris
# Test Conditions: in vivo, dose 0.25 mg/kg
Parameter: MRT at 24 h (h)
# unit: h | format: bare number

Fill blank: measured MRT at 24 h of the compound C[C@@]1(N2CCC(c3cc4cc(NC(=O)C5CC56CC6)ncc4cc3Cl)CC2)COC[C@@H]1O (stereo partly specified) is ____.
33

---

# Test Protocol: Kinetic solubility of compound in PBS at pH 7 measured after 24 hrs by UPLC/DAD analysis
# Assay type: physicochemical
# Test Conditions: read-out: Kinetic_solubility
Parameter: solubility kinetic at 24 h

Fill blank: measured solubility kinetic at 24 h of the compound C[C@@]1(N2CCN(c3cc4cc(NC(=O)[C@H]5CC56CCOCC6)ncc4cc3Cl)CC2)COC[C@@H]1O is ____.
< 3 µM

---

# Test Protocol: AUC in rhesus monkey at 200 mg/kg, po administered once daily for 7 days
# Format: ADME, organism-based, Macaca mulatta
# Design: dose 200 mg/kg, time 7 day, route po
# Test Conditions: in vivo
Parameter: AUC at 168 h (µM·h)
# unit: µM·h | format: bare number

Fill blank: measured AUC at 168 h of the compound C[C@@]1(N2CCN(c3cc4cc(NC(=O)[C@H]5CC56CCOCC6)ncc4cc3Cl)CC2)COC[C@@H]1O is ____.
25

---

# Test Protocol: Total clearance in Beagle dog at 0.05 mg/kg, iv administered as cassette dose by LC-MS/MS analysis
# Type: ADME, organism-based, Canis lupus familiaris
# Test Conditions: in vivo
Parameter: clearance

INSERT INTO assay_data (compound, readout_value) VALUES
  ('C[C@@]1(N2CCC(c3cc4cc(NC(=O)[C@H]5CC56CCOCC6)ncc4cc3Cl)CC2)COC[C@@H]1O', '18 mL/min/kg');

Fill blank: measured clearance of the compound Cc1cc2cnc(NC(=O)C3CC34CC4)cc2cc1C1CCN([C@]2(C)COC[C@@H]2O)CC1 (some centres not stated) is ____.
10 mL/min/kg

---

# Test Protocol: MRT in Wistar-Han rat at 0.1 mg/kg, iv administered as cassette dose by LC-MS/MS analysis
# Type: ADME, organism-based
# Test Conditions: in vivo
Parameter: MRT (h)
# unit: h | format: bare number

// worked examples, MRT included
INSERT INTO results (compound, readout_value) VALUES
  ('Cn1ccc([C@H]2C[C@@H]2C(=O)Nc2cc3cc(C4CCN([C@]5(C)COC[C@@H]5O)CC4)c(Cl)cc3cn2)n1', 2.6),
  ('Cn1cc([C@H]2C[C@@H]2C(=O)Nc2cc3cc(C4CCN([C@]5(C)COC[C@@H]5O)CC4)c(Cl)cc3cn2)cn1', 4.4),
  ('C[C@@]1(N2CCC(c3cc4cc(NC(=O)C5CC5)ncc4cc3Cl)CC2)COC[C@@H]1O', 3.2);

Fill blank: measured MRT of the compound CC(C)(O)[C@H]1C[C@H]1C(=O)Nc1cc2cc(C3CCN([C@]4(C)COC[C@@H]4O)CC3)c(Cl)cc2cn1 is ____.
3.1

CC1(N2CCC(c3cc4cc(NC(=O)C5CC5)ncc4cc3Cl)CC2)COC1 , same question.
3.3

Cc1cc2cnc(NC(=O)C3CC34CC4)cc2cc1C1CCN([C@]2(C)COC[C@@H]2O)CC1 (some centres not stated) , same question.
3.2

COC(C)(C)[C@@H]1C[C@H]1C(=O)Nc1cc2cc(C3CCN([C@]4(C)COC[C@@H]4O)CC3)c(Cl)cc2cn1 , same question.
2.1
